Each entry below carries its reported Ki.
EXPERIMENTAL TARGET: nAChRs (Rattus norvegicus, UniProt P09483+P12390)
SETUP CONDITIONS: read-out: Ki AVG
Give your result in µM as a bare value.

c1cncc(OC[C@@H]2CCCN2)c1 [H-11MNH] :: 0.00046
CN1CCCC1COc1ccccn1 (stereo not shown) :: 60.3
c1cc(OC[C@@H]2CCCN2)ccn1 :: 59.2

Lab book: Ki of c1ccc(OCC2CCCN2)nc1 (stereo not shown) noted as 21.8

* * *

EXPERIMENTAL TARGET: α4β2 nAChR (Rattus norvegicus, UniProt P09483+P12390)
Sequence (P09483 31-630): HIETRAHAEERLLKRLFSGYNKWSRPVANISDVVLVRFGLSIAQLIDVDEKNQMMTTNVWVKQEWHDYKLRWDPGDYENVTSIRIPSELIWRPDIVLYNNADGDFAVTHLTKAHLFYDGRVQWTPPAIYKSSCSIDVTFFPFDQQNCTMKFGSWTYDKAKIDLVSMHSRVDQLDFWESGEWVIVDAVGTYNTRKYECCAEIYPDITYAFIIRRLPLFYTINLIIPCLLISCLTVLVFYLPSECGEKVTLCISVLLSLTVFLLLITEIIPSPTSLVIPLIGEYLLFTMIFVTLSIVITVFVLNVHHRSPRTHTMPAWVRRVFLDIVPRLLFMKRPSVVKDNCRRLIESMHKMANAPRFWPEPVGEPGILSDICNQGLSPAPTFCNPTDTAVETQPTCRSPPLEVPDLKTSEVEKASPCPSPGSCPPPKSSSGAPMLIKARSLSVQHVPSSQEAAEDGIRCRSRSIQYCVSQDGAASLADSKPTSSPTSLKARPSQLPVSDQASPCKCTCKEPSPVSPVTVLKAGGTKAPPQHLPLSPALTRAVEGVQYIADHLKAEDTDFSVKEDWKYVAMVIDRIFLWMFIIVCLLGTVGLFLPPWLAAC
Sequence (P12390 25-500): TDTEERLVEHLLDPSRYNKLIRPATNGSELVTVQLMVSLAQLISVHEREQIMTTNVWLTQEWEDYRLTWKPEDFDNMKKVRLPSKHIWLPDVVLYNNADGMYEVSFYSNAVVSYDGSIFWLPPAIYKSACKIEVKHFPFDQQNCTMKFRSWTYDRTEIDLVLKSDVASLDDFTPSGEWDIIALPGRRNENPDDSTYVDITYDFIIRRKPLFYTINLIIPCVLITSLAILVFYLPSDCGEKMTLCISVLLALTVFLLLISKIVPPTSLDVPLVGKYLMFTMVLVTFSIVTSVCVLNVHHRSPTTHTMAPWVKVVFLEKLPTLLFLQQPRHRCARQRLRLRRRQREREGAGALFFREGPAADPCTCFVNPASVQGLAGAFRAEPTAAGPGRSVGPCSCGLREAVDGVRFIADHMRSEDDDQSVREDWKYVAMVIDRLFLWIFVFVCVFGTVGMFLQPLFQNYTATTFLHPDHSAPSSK
Format: binding
SETUP CONDITIONS: read-out: Ki α4β2; vs 500pM [3H]EB, HEK cells, Mean ± SEM of three
pKi: −log10 of the molar value.
READOUT TYPE: pKi

Some compounds with recorded pKi:
CN1CCCC1COc1ccccn1 (stereo not shown) :: < 5.00
c1ccc(OCC2CCCN2)nc1 (stereo not shown) :: < 5.00
c1cncc(OC[C@@H]2CCCN2)c1 [H-11MNH] :: 9.41

Turning now to a further record.
// field: pKi; key: `c1cc(OC[C@@H]2CCCN2)ccn1` ; value = < 5.00
